Test Name: Solubility of the dyes in organic solvent, determined after one week of the solution in contact with the solid dye with occasional shaking
Type: physicochemical
Details: CHCl₃, 20 °C; 10080 min
Observed Property: Löslichkeit (CHCl₃/20^oC) (mg/100 ml)
Kindly answer with a numeric value in mg/100 ml, unit omitted.

1. CCCCCN1C(=O)c2ccc3c4ccc5c6c(ccc(c7ccc(c2c37)C1=O)c64)C(=O)N(CCCCC)C5=O ... 47

Measured Löslichkeit (CHCl₃/20^oC), `CCCCCCCCCN1C(=O)c2ccc3c4ccc5c6c(ccc(c7ccc(c2c37)C1=O)c64)C(=O)N(CCCCCCCCC)C5=O` : 11

----------
This listing pairs compounds with measured Löslichkeit (CHCl₃).
Test Name: Solubility of the dyes in organic solvent, determined after one week of the solution in contact with the solid dye with occasional shaking
Format: physicochemical
Details: CHCl₃, temperature not given; 10080 min

Please review the following examples before continuing.
1) CCCCCCCCCCCCCCCCCCN1C(=O)c2ccc3c4ccc5c6c(ccc(c7ccc(c2c37)C1=O)c64)C(=O)N(CCCCCCCCCCCCCCCCCC)C5=O ... 1,8 mg/100 ml
2) CCCCCCCCCCCCCCCCN1C(=O)c2ccc3c4ccc5c6c(ccc(c7ccc(c2c37)C1=O)c64)C(=O)N(CCCCCCCCCCCCCCCC)C5=O ... 6.0 mg/100 ml
3) CCCCCCCCCCCCCCN1C(=O)c2ccc3c4ccc5c6c(ccc(c7ccc(c2c37)C1=O)c64)C(=O)N(CCCCCCCCCCCCCC)C5=O ... 5.4 mg/100 ml

Next compound, Löslichkeit (CHCl₃) to be filled in.
The reported Löslichkeit (CHCl₃) of the compound `O=C1c2ccc3c4ccc5c6c(ccc(c7ccc(c2c37)C(=O)N1C1CCCCCCCCCCCCCCC1)c64)C(=O)N(C1CCCCCCCCCCCCCCC1)C5=O` was 0.56 g/100ml
